Provide the recorded pEC50 for the entries that follow.
- MEASURED_TARGET: GLP-1R (Homo sapiens)
- ASSAY_INFO: GLP-1R activation: cAMP increase in CHO cells stably expressing GLP-1R
- Type: cell-based
- DETAILS: cAMP increase, CHO cells stably expressing GLP-1R, 10 point dose response, 30 minutes incubation; read-out: EC50
The quantity pEC50 is defined as the negative base-10 logarithm of the molar concentration.

Look up pEC50 for this compound: N#Cc1ccc(COc2cccc(-c3cc(F)c(Cc4nc5ccc(C(=O)NS(=O)(=O)C6CC6)cc5n4C[C@@H]4CCO4)cc3F)n2)c(F)c1 8.85

Look up pEC50 for this compound: COCCn1c(Cc2cc(F)c(-c3cccc(OCc4ccc(C#N)cc4F)n3)cc2F)nc2ccc(C(=O)O)cc21 8.63

Look up pEC50 for this compound: N#CCC1(Cn2c(Cc3cc(F)c(-c4cccc(OCc5ccc(C(F)F)cc5F)n4)cc3F)nc3ccc(C(=O)O)cc32)CC1 10.30

Look up pEC50 for this compound: COCCn1c(Cc2ccc(-c3cccc(OC4CCOc5cc(C#N)ccc54)n3)cc2F)nc2ccc(C(=O)O)cc21 (stereo not shown) 5.95

Look up pEC50 for this compound: N#Cc1ccc(COc2ccc(F)c(-c3cc(F)c(Cc4nc5c(F)cc(C(=O)O)cc5n4CC4(CF)CC4)cc3F)n2)c(F)c1 9.59

Look up pEC50 for this compound: N#CCC1(Cn2c(Cc3ccc(-c4ccc(F)c(OCc5ccc(C#N)cc5F)n4)cc3F)nc3c(F)cc(C(=O)O)cc32)CC1 11.00

Look up pEC50 for this compound: COCCn1c(Cc2ccc(-c3cccc(OCc4ccc(C#N)cc4F)n3)c3c2COC3)nc2ccc(C(=O)O)cc21 6.97

----------
- MEASURED_TARGET: GLP-1R (Homo sapiens, UniProt P43220)
- Sequence (P43220 24-463): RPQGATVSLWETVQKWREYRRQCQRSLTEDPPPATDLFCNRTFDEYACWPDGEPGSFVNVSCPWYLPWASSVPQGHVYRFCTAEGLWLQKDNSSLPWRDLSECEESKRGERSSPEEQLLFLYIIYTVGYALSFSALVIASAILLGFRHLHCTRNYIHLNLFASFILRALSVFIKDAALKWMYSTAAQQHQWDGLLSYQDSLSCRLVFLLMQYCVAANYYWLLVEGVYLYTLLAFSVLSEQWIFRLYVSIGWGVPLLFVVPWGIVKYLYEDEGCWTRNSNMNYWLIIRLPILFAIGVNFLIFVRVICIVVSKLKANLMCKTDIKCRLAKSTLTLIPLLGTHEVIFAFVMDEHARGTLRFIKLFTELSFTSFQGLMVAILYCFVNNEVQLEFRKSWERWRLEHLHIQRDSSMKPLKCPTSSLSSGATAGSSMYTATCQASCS
- ASSAY_INFO: GLP-1R activation: cAMP increase in CHO cells stably expressing GLP-1R
- Format: cell-based
- DETAILS: cAMP increase, CHO cells stably expressing GLP-1R, 10 point dose response, 30 minutes incubation; read-out: EC50
OBSERVED_PROPERTY: pEC50
The quantity pEC50 is defined as the negative base-10 logarithm of the molar concentration.

Look up pEC50 for this compound: N#Cc1ccc(COc2cccc(-c3cc(F)c(Cc4nc5ccc(C(=O)O)cc5n4CC45CCN(CC4)C5)cc3F)n2)c(F)c1 7.26

Look up pEC50 for this compound: CCn1nccc1Cn1c(Cc2ccc(-c3cccc(OCc4ccc(C#N)cc4F)n3)c(F)c2)nc2ccc(C(=O)O)cc21 7.33

Look up pEC50 for this compound: COCCn1c(Cc2ccc(-c3cccc(OCc4ccc5c(c4)OC(F)(F)O5)n3)cc2F)nc2ccc(C(=O)O)cc21 7.93

Look up pEC50 for this compound: N#Cc1ccc(COc2cccc(-c3ccc(Cc4nc5ccc(C(=O)O)cc5n4CCOC(F)(F)F)c(F)c3)n2)c(F)c1 7.56

Look up pEC50 for this compound: COCCn1c(Cc2cc(F)c(-c3ccc(F)c(OCc4ccc(C(F)(F)F)cc4F)n3)cc2F)nc2c(F)cc(C(=O)O)cc21 9.29

Look up pEC50 for this compound: COCCn1c(Cc2cc(F)c(-c3cccc(OCc4cc(C#N)cs4)n3)cc2F)nc2ccc(C(=O)O)cc21 7.36

Look up pEC50 for this compound: COCCn1c(Cc2cc(F)c(-c3cccc(OCc4cnc(C(F)(F)F)s4)n3)cc2F)nc2ccc(C(=O)O)cc21 7.79
